Where do these numbers come from? They come from the supplement of paper PMC7261846.

# Tested on: Candida albicans SNY425 biofilm
# protocol.notes: biofilm OD600 with compound plus antifungal (OD600 (absorbance)); higher = more biofilm remaining
# recorded.conditions: assay detail: disruption of 24-h mature biofilm (compound + antifungal for a second 24 h)
The reader will find reported biofilm OD600 values listed item by item below.

Solved cases below.
CCCCCCCCCC(=O)N[C@@H](CCCN=C(N)N)C(=O)N[C@H](C(=O)N[C@@H](CCCCN)C(=O)N[C@@H](CCCN=C(N)N)C(=O)CCl)C(C)C + OC(Cn1cncn1)(Cn1cncn1)c1ccc(F)cc1F [fluconazole] (first compound 4 µM) : 0.267
O=C1Nc2ccc([N+](=O)[O-])cc2C1=O [5-Nitroisatin] + OC(Cn1cncn1)(Cn1cncn1)c1ccc(F)cc1F [fluconazole] (first compound 12.5 µM) : 0.249
CCCC[C@@H](C=O)NC(=O)[C@H](CC(C)C)NC(=O)OCc1ccccc1 [Calpeptin] + OC(Cn1cncn1)(Cn1cncn1)c1ccc(F)cc1F [fluconazole] (first compound 12.5 µM) : 0.26
CO[C@@H]1[C@H](OC(=O)/C=C/C=C/C=C/C=C/C(=O)O)CC[C@]2(CO2)[C@H]1[C@@]1(C)O[C@@H]1CC=C(C)C [Fumagillin] + CC[C@H](C)C[C@H](C)CCCCCCCCC(=O)N[C@H]1C[C@@H](O)[C@@H](NCCN)NC(=O)[C@@H]2[C@@H](O)CCN2C(=O)[C@H]([C@H](O)CCN)NC(=O)[C@H]([C@H](O)[C@@H](O)c2ccc(O)cc2)NC(=O)[C@@H]2C[C@@H](O)CN2C(=O)[C@H]([C@@H](C)O)NC1=O [caspofungin] (first compound 12.5 µM) : 0.257
CCCC[C@@H](C=O)NC(=O)OC(C)(C)C + CC[C@H](C)C[C@H](C)CCCCCCCCC(=O)N[C@H]1C[C@@H](O)[C@@H](NCCN)NC(=O)[C@@H]2[C@@H](O)CCN2C(=O)[C@H]([C@H](O)CCN)NC(=O)[C@H]([C@H](O)[C@@H](O)c2ccc(O)cc2)NC(=O)[C@@H]2C[C@@H](O)CN2C(=O)[C@H]([C@@H](C)O)NC1=O [caspofungin] (first compound 12.5 µM) : 0.254
COC(=O)N[C@H](C(=O)N[C@@H](Cc1ccccc1)[C@@H](O)CN(Cc1ccc(-c2ccccn2)cc1)NC(=O)[C@@H](NC(=O)OC)C(C)(C)C)C(C)(C)C [atazanavir] + C[C@@H]1[C@H](O)[C@@H](C)/C=C/C=C/C=C/C=C/C=C/C=C/C=C/[C@H](O[C@@H]2O[C@H](C)[C@@H](O)[C@H](N)[C@@H]2O)C[C@@H]2O[C@](O)(C[C@@H](O)C[C@@H](O)[C@H](O)CC[C@@H](O)C[C@@H](O)CC(=O)O[C@H]1C)C[C@H](O)[C@H]2C(=O)O [amphotericin B] (first compound 12.5 µM) : 0.286

# ---- query compound ----
The compound O=C(NCCCCN1CCOCC1)c1cc2ccccc2o1 + CC[C@H](C)C[C@H](C)CCCCCCCCC(=O)N[C@H]1C[C@@H](O)[C@@H](NCCN)NC(=O)[C@@H]2[C@@H](O)CCN2C(=O)[C@H]([C@H](O)CCN)NC(=O)[C@H]([C@H](O)[C@@H](O)c2ccc(O)cc2)NC(=O)[C@@H]2C[C@@H](O)CN2C(=O)[C@H]([C@@H](C)O)NC1=O [caspofungin] (first compound 12.5 µM) showed biofilm OD600 equal to 0.251
